Molecular target: P. falciparum apicoplast DNA polymerase (Pf-apPOL) (Plasmodium falciparum, UniProt Q8ILY1)
Sequence (Q8ILY1 entry or part of it): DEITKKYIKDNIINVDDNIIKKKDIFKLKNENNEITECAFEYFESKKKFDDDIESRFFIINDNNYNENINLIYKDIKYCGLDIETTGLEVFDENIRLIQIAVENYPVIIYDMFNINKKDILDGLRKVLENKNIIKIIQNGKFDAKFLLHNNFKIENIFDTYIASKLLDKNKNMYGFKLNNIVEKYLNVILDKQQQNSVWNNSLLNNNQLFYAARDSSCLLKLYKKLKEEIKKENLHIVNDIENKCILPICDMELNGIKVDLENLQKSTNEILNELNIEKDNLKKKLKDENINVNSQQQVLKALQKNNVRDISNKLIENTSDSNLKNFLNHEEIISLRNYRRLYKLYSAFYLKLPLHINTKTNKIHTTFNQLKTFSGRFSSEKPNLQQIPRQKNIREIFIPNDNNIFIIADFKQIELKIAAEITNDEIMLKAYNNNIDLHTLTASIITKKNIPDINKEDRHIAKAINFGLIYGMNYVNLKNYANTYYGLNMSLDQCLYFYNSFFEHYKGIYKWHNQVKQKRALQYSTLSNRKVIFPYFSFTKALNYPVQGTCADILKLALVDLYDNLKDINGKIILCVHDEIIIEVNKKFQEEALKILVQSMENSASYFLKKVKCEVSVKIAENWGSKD
Test: Fluorescence-based high-throughput DNA polymerase assay (molecular beacon), primary screen and dose-response;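 further: test concentration in µM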
Type: biochemical
Conditions: DRC-2; 90'; concentration 10
METRIC: % inhibition ApPOL 90'

{"COMPOUND": "O=C(c1c[nH]c2ncccc12)N1CCCC1 [Molecule 63, O=C(c1c[nH]c2c1cccn2)N1CCCC1]", "% inhibition ApPOL 90'": "30%"}
{"COMPOUND": "N#Cc1c(C2CCCCC2)nc(Sc2ccc(C(F)(F)F)cc2[N+](=O)[O-])[nH]c1=O", "% inhibition ApPOL 90'": "54%"}
{"COMPOUND": "Cc1ccccc1C(=O)N1CCc2c(nc3cc(-c4ccccc4)[nH]n3c2=O)C1", "% inhibition ApPOL 90'": "21%"}

Tell me measured % inhibition ApPOL 90' for COc1ccc(-c2cc(=O)c3cc(O)ccc3o2)cc1OC please.
20%
